TARGET_OR_SYSTEM: OsWRKY121 (Oryza sativa)
Sequence: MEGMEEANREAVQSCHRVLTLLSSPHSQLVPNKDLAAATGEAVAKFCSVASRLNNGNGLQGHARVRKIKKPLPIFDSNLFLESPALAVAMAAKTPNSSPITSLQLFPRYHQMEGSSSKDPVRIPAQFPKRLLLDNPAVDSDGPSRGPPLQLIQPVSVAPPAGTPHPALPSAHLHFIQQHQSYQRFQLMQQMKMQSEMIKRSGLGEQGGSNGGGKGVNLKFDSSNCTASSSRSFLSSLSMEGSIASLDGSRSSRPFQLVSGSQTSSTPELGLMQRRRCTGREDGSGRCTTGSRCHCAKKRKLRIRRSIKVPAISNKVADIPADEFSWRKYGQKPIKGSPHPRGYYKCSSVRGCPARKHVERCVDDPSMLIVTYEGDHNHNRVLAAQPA
TEST_METHOD_NOTES: EMSA
TEST_CONTEXT: LightShift Chemiluminescent EMSA kit protocol; 20 fmol biotin-labeled DNA, 4 pmol protein (where stated); buffer, salt, pH and temperature not stated

- PRIMARY_SEQUENCE: "TGGCTCCCTAGAGCTTTTTGTAAGTTGATCATCGAAGTAGCTAGTTCTCTTCACTTATCAGTCATCACTGTTCTATGTTCTATCTGCATTTTCCTTGATTTTGTACTTTTCCTGAACGAAAGGACAATCCTT (double strand) [OsNF-YC4 promoter P2]"
  binding: "binds"
- PRIMARY_SEQUENCE: "ACCAGAGTTCTTTTTCCCCCTCTTCTACATAAACGAAAACAGCTTGTTGACTGGCTCCCTAGAGCTTTTTGTAAGTTGATCATCGAAGTAGCTAGTTCTCTTCACTTATCAGTCATCACTGTTCTATGTTCTATCTGCATTTTCCTTGATTTTGTACTTTTCCTGAACGAAAGGACAATCCTTAGCCATCATAATGCTATGATCGACTTATTCTGAAGTCATCCGGCCTCGATCCTCTTTTGT (double strand) [OsNF-YC4 promoter P5]"
  binding: "binds"
- PRIMARY_SEQUENCE: "AACAGCTTGTTGACTGGCTCCCTAGAGCTTTTTGTAAGTTGATCATCGAAGTAGCTAGTTCTCTTCACTTATCAGTCATCACTGTTCTATGTTCTATCTGCATTTTCCTTGATTTTGTACTTTTCCTGAACGAAAGGACAATCCTTAGCCATCATAATGCTATGATCGACTTATTCTGAAGTCATCCGGCCTCGATCCT (double strand) [OsNF-YC4 promoter 198-bp]"
  binding: "binds"

* * *

System: GmRAV1 (Glycine max), ORF:a1ee9a9b
Sequence (chain, as listed by the source): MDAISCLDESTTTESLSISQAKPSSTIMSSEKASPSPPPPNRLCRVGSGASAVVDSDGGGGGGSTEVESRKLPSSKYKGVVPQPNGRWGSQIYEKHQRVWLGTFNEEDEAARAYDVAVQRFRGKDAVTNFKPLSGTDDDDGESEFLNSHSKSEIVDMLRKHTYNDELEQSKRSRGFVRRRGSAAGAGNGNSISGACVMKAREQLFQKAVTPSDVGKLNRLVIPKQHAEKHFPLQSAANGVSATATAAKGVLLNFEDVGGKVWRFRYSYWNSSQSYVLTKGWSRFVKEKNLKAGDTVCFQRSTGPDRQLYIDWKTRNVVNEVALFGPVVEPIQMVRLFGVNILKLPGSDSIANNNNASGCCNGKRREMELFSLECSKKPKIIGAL
TEST_METHOD_NOTES: EMSA
TEST_CONTEXT: LightShift Chemiluminescent EMSA kit protocol; 20 fmol biotin-labeled DNA, 4 pmol protein (where stated); buffer, salt, pH and temperature not stated

- PRIMARY_SEQUENCE: "CCCTAATATTGTGAACAAACTTTGTTGGTAATGTAAAAAAAATTAAAAGAAACAAGATTAAATTACGTATTTAATAATTTAAGATTAATGTTGTTTAATTTGATTTTTTAAATATTTATCTTTCTTTTGAATTTGATTCTTTAGTTCAC (double strand) [GmNF-YC4-1 promoter P6]"
  TARGET_OR_SYSTEM: "GmRAV1 (Glycine max), ORF:a1ee9a9b"
  binding: "binds"
- PRIMARY_SEQUENCE: "GGCATTGACATGGATGGATGGAACACCCTCATAGTCACATGCCACAACAGAGTAACGCTAAACAAAATGTATTAACAAAAACTATAGGATCATGCTTTCTTAATTTAAAAACATAGGTGGTCAGTTTTTGTTAACATTAATTTTTAGGATTATTTGTTGAAGACAAATATGGAAGGTTTATAATAATTTATGTGCATTACTCAATGTAATCC (double strand) [GmNF-YC4-1 promoter P5]"
  TARGET_OR_SYSTEM: "GmRAV1 (Glycine max), ORF:a1ee9a9b"
  binding: "binds"
- PRIMARY_SEQUENCE: "GATTAATAATATCCCTAATATTGTGAACAAACTTTGTTGGTAATGTAAAAAAAATTAAAAGAAACAAGATTAAATTACGTATTTAATAATTTAAGATTAA (double strand) [GmNF-YC4-1 promoter P3]"
  TARGET_OR_SYSTEM: "GmRAV1 (Glycine max), ORF:a1ee9a9b"
  binding: "binds"
